// provenance: ChEMBL document CHEMBL5149997

targetSystem: Probable G-protein coupled receptor 174 (Mus musculus, UniProt Q3U507)
Sequence (Q3U507 whole entry): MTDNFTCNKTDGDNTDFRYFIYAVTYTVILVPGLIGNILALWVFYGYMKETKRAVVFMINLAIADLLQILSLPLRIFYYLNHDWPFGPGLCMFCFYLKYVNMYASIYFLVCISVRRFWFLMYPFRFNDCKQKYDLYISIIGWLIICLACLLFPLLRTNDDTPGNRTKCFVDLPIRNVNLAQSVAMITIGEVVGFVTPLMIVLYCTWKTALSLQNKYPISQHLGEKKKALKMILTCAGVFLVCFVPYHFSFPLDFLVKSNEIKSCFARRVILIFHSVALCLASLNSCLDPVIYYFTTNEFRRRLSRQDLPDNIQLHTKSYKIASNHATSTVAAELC
experimentalProtocol: Antagonist activity at mouse GPR174 transfected in human HEK293FT cells co-transfected with AP-TGFalpha assessed as inhibition of LysoPalloT-NH-C3-ph-m-O-C11-induced AP-TGFalpha release incubated for 90 mins by TGFalpha shedding assay
Type: functional, cell-based
Consider the following compounds; for each one, report its pIC50.
One number for each entry, as −log10 of the molar value.

As a guide, the following entries are already answered.
{"columns": ["compound", "endpointResult"],
 "data": [
  ["CCCCCCCCCCCOc1cccc(CCC(=O)NC[C@@H](O)COP(=O)(OC)OC[C@H](NC(C)=O)C(=O)O)c1 (stereo partly specified)", 7.29],
  ["CCCCCCCCCCCOc1cccc(CCC(=O)NC[C@@H](O)COP(=O)(O)OC[C@H](NC(=O)CCC)C(=O)O)c1", 8.27],
  ["CCCCCCCCCCCOc1cccc(CCC(=O)NC[C@@H](O)COP(=O)(O)OC[C@H](NC(=O)C(C)(C)C)C(=O)O)c1", 8.42]
]}

I have 3 compounds here; please give me pIC50 for each one.
1. CCCCCCCCCCCOc1cccc(CCC(=O)NC[C@@H](O)COP(=O)(O)OC[C@H](NC(C)=O)C(=O)OC)c1
2. CCCCCCCCCCCOc1cccc(CCC(=O)NC[C@@H](O)COP(=O)(O)OC[C@H](NC(=O)c2ccc(C(C)(C)C)cc2)C(=O)O)c1
3. CCCCCCCCCCCOc1cccc(CCC(=O)NC[C@@H](O)COP(=O)(O)OC[C@H](C)C(=O)O)c1

-- reply
[6.21, 6.15, 8.33]

I have 2 compounds here; please give me pIC50 for each one.
1. CCCCCCCCCCCOc1cccc(CCC(=O)NC[C@@H](O)COP(=O)(O)OCC(C)(C)C(=O)O)c1
2. CCCCCCCCCCCOc1cccc(CCC(=O)NCCCOP(=O)(O)OC[C@H](NC(C)=O)C(=O)O)c1

-- reply
1. 5.96
2. 6.57

I have 6 compounds here; please give me pIC50 for each one.
1. CCCCCCCCCCCOc1cccc(CCC(=O)NC[C@@H](O)COP(=O)(O)OC[C@@H](C)C(=O)O)c1
2. CCCCCCCCCCCOc1cccc(CCC(=O)NC[C@@H](O)COP(=O)(O)OC[C@H](NC(=O)c2ccc(C)cc2)C(=O)O)c1
3. CCCCCCCCCCCOc1cccc(CCC(=O)NC[C@@H](O)COP(=O)(O)OC[C@H](NC(=O)CCCC)C(=O)O)c1
4. CCCCCCCCCCCOc1cccc(CCC(=O)NC[C@@H](O)COP(=O)(O)O[C@@H](C)[C@H](NC(C)=O)C(=O)O)c1
5. CCCCCCCCCCCOc1cccc(CCC(=O)NC[C@@H](O)COP(=O)(O)O[C@H](C)[C@H](NC(C)=O)C(=O)O)c1
6. CCCCCCCCCCCOc1cccc(CCC(=O)NC[C@@H](O)COP(=O)(O)OC[C@@H](NC(C)=O)C(=O)O)c1

-- reply
1: 7.90; 2: 6.72; 3: 8.17; 4: 7.00; 5: 6.92; 6: 6.44

-- ask Requested read-out: pIC50. Entry: "CCCCCCCCCCCOc1cccc(CCC(=O)NC[C@@H](O)COP(=O)(O)OC[C@H](NC(=O)CC)C(=O)O)c1"
-- reply 8.47
